# assay_system: T1, human IGF2^1-67 (mature insulin-like growth factor 2) (human, UniProt P01344 25-91, biotinylated (site not stated) where immobilised on the chip (Tables 1-4))
# T1 construct: mature; also called mature IGF2; biotinylated IGF2
# T1 sequence (P01344 25-91): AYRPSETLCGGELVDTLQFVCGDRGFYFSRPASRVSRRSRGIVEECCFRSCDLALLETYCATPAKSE
# experiment: SPR kinetic, biotin-IGF2 on chip, pH 7.4
Listed here are binders together with their documented koff.
State just the number; it will be interpreted in s⁻¹.

binder | koff (s⁻¹)
domain 11^AB5 S1600A (receptor, See m5) MKSNEHDDCQVTNPSTGHLFDLSSLSGRAGFTAAYAKGWGVYMSICGENENCPPGVGACFGQTRISVGKANKRLRYVDQVLQLVYKDGSPCPAKSGLSYKSVISFVCRPEAGPTNRPMLISLDKQTCTLFFSWHTPLACEQATECSV | 0.213

Now examine the next entry.
Task item: Please indicate koff recorded for domain 11^AB5 Q1632E (receptor, See m5; HI loop mutant) MKSNEHDDCQVTNPSTGHLFDLSSLSGRAGFTAAYAKGWGVYMSICGENENCPPGVGACFGQTRISVGKANKRLRYVDQVLQLVYKDGSPCPSKSGLSYKSVISFVCRPEAGPTNRPMLISLDKETCTLFFSWHTPLACEQATECSV
Reply: 0.0202

Source of measurements: patent US20180237497A1
